Tested on: Bacillus subtilis
experimental_protocol: Antibacterial activity against Bacillus subtilis at 50 ug/ml after 24 hr by agar diffusion cup plate method
Assay type: functional
conditions_used: read-out: DIZ
Record form. Attribute: zone of inhibition at 50 µg/mL. Fill in for each entry.
One number for each entry, in mm.

smiles_notation: O=C1CC(=O)N(c2ccc([N+](=O)[O-])cc2[N+](=O)[O-])N1
test_system: Bacillus subtilis
assay_endpoint: zone of inhibition at 50 µg/mL
reading_unit: mm
measured_number: 10.2

smiles_notation: O=C1CC(CCl)=NN1c1ccc([N+](=O)[O-])cc1[N+](=O)[O-]
test_system: Bacillus subtilis
assay_endpoint: zone of inhibition at 50 µg/mL
reading_unit: mm
measured_number: 12.2

smiles_notation: CC1=NN(c2ccc([N+](=O)[O-])cc2[N+](=O)[O-])C(=O)C1
test_system: Bacillus subtilis
assay_endpoint: zone of inhibition at 50 µg/mL
reading_unit: mm
measured_number: 10.2

stdin: Bench note: what zone of inhibition at 50 µg/mL did NC1=NN(c2ccc([N+](=O)[O-])cc2[N+](=O)[O-])C(=O)C1 show?
stdout: 10.4

----------
Tested on: Pseudomonas aeruginosa
experimental_protocol: Antibacterial activity against Pseudomonas aeruginosa at 100 ug/ml after 24 hr by agar diffusion cup-plate method
Assay type: functional
conditions_used: read-out: DIZ
assay_endpoint: zone of inhibition at 100 µg/mL (mm)
One number for each entry, in mm.

These solved cases illustrate the format of a correct answer.
compound: O=[N+]([O-])c1ccc(NNC(=S)Nc2ccccc2)c([N+](=O)[O-])c1
measured_number: 14.2

compound: CC(=O)N1C(=O)CC(=O)N1c1ccc([N+](=O)[O-])cc1[N+](=O)[O-]
measured_number: 22.8

compound: NC1=NN(c2ccc([N+](=O)[O-])cc2[N+](=O)[O-])C(=O)C1
measured_number: 12.1

compound: CCn1cc(C(=O)O)c(=O)c2cc(F)c(N3CCNCC3)cc21 [NORFLOXACIN]
measured_number: 31.1

Please find the next compound below.
stdin: Bench note: what zone of inhibition at 100 µg/mL did O=C1CS/C(=N/c2ccccc2)N1Nc1ccc([N+](=O)[O-])cc1[N+](=O)[O-] show?
stdout: 10.3

----------
Test system: Pseudomonas aeruginosa
experimental_protocol: Antibacterial activity against Pseudomonas aeruginosa at 100 ug/ml after 24 hr by agar diffusion cup-plate method
Format: functional
conditions_used: read-out: DIZ
Record form. Attribute: zone of inhibition at 100 µg/mL. Fill in for each entry.
Give bare numbers, in mm.

These solved cases illustrate the format of a correct answer.
smiles_notation: O=C1CC(=O)N(c2ccc([N+](=O)[O-])cc2[N+](=O)[O-])N1
reading_unit: mm
zone of inhibition at 100 µg/mL: 13.2

smiles_notation: O=C1CC(CCl)=NN1c1ccc([N+](=O)[O-])cc1[N+](=O)[O-]
reading_unit: mm
zone of inhibition at 100 µg/mL: 22.1

smiles_notation: CC1=NN(c2ccc([N+](=O)[O-])cc2[N+](=O)[O-])C(=O)C1
reading_unit: mm
zone of inhibition at 100 µg/mL: 16

Please find the next compound below.
stdin: Missing value: zone of inhibition at 100 µg/mL, Pseudomonas aeruginosa, entry Cc1cc(C)n(-c2ccc([N+](=O)[O-])cc2[N+](=O)[O-])n1 . Fill in?
stdout: 18.6

----------
System: Bacillus subtilis
experimental_protocol: Antibacterial activity against Bacillus subtilis at 200 ug/ml after 24 hr by agar diffusion cup plate method
Assay type: functional
conditions_used: read-out: DIZ
assay_endpoint: zone of inhibition at 200 µg/mL (mm)
Answers are plain numbers, in mm.

These solved cases illustrate the format of a correct answer.
smiles_notation: O=C1CS/C(=N/c2ccccc2)N1Nc1ccc([N+](=O)[O-])cc1[N+](=O)[O-]
reading_unit: mm
zone of inhibition at 200 µg/mL: 26.4
--
smiles_notation: NC1=NN(c2ccc([N+](=O)[O-])cc2[N+](=O)[O-])C(=O)C1
reading_unit: mm
zone of inhibition at 200 µg/mL: 12
--
smiles_notation: Cc1cc(C)n(-c2ccc([N+](=O)[O-])cc2[N+](=O)[O-])n1
reading_unit: mm
zone of inhibition at 200 µg/mL: 22.9

Provide the reported zone of inhibition at 200 µg/mL of each entry below, same order.
1. O=C1CC(=O)N(c2ccc([N+](=O)[O-])cc2[N+](=O)[O-])N1
2. CC1=NN(c2ccc([N+](=O)[O-])cc2[N+](=O)[O-])C(=O)C1
3. O=[N+]([O-])c1ccc(NNC(=S)Nc2ccccc2)c([N+](=O)[O-])c1
4. O=C1CC(CCl)=NN1c1ccc([N+](=O)[O-])cc1[N+](=O)[O-]
5. CC(=O)N1C(=O)CC(=O)N1c1ccc([N+](=O)[O-])cc1[N+](=O)[O-]
6. CCn1cc(C(=O)O)c(=O)c2cc(F)c(N3CCNCC3)cc21

stdout:
[16, 12, 18.4, 28, 25.1, 31.3]

----------
Tested on: Aspergillus niger
experimental_protocol: Antifungal activity against Aspergillus niger at 50 ug/ml after 48 to 72 hr by agar diffusion cup-plate method
Type: functional
conditions_used: read-out: DIZ
assay_endpoint: zone of inhibition at 50 µg/mL (mm)
Answers are plain numbers, in mm.

These solved cases illustrate the format of a correct answer.
smiles_notation: O=C1CC(=O)N(c2ccc([N+](=O)[O-])cc2[N+](=O)[O-])N1
zone of inhibition at 50 µg/mL / mm: 10.1
--
smiles_notation: CC1=NN(c2ccc([N+](=O)[O-])cc2[N+](=O)[O-])C(=O)C1
zone of inhibition at 50 µg/mL / mm: 12.2
--
smiles_notation: Cc1cc(C)n(-c2ccc([N+](=O)[O-])cc2[N+](=O)[O-])n1
zone of inhibition at 50 µg/mL / mm: 10.2
--
smiles_notation: CC(=O)N1C(=O)CC(=O)N1c1ccc([N+](=O)[O-])cc1[N+](=O)[O-]
zone of inhibition at 50 µg/mL / mm: 12.2
--
smiles_notation: O=C1CC(CCl)=NN1c1ccc([N+](=O)[O-])cc1[N+](=O)[O-]
zone of inhibition at 50 µg/mL / mm: 14
--
smiles_notation: O=C1CS/C(=N/c2ccccc2)N1Nc1ccc([N+](=O)[O-])cc1[N+](=O)[O-]
zone of inhibition at 50 µg/mL / mm: 10.2
--
smiles_notation: Clc1ccccc1C(c1ccccc1)(c1ccccc1)n1ccnc1
zone of inhibition at 50 µg/mL / mm: 28.4
--
smiles_notation: NC1=NN(c2ccc([N+](=O)[O-])cc2[N+](=O)[O-])C(=O)C1
zone of inhibition at 50 µg/mL / mm: 8.4

Please find the next molecule below.
stdin: Missing value: zone of inhibition at 50 µg/mL, Aspergillus niger, entry O=[N+]([O-])c1ccc(NNC(=S)Nc2ccccc2)c([N+](=O)[O-])c1 . Fill in?
stdout: 10

----------
Record form. Attribute: zone of inhibition at 100 µg/mL. Fill in for each entry.
Test system: Escherichia coli
experimental_protocol: Antibacterial activity against Escherichia coli at 100 ug/ml after 24 hr by agar diffusion cup-plate method
Assay type: functional
conditions_used: read-out: DIZ
Give bare numbers, in mm.

These solved cases illustrate the format of a correct answer.
smiles_notation: CC1=NN(c2ccc([N+](=O)[O-])cc2[N+](=O)[O-])C(=O)C1
measured_number: 16

smiles_notation: O=C1CC(CCl)=NN1c1ccc([N+](=O)[O-])cc1[N+](=O)[O-]
measured_number: 23

smiles_notation: CCn1cc(C(=O)O)c(=O)c2cc(F)c(N3CCNCC3)cc21
measured_number: 35.4

smiles_notation: O=C1CC(=O)N(c2ccc([N+](=O)[O-])cc2[N+](=O)[O-])N1
measured_number: 18.1

smiles_notation: CC(=O)N1C(=O)CC(=O)N1c1ccc([N+](=O)[O-])cc1[N+](=O)[O-]
measured_number: 15.2

smiles_notation: Cc1cc(C)n(-c2ccc([N+](=O)[O-])cc2[N+](=O)[O-])n1
measured_number: 23

smiles_notation: O=C1CS/C(=N/c2ccccc2)N1Nc1ccc([N+](=O)[O-])cc1[N+](=O)[O-]
measured_number: 26.1

smiles_notation: NC1=NN(c2ccc([N+](=O)[O-])cc2[N+](=O)[O-])C(=O)C1
measured_number: 16

Please find the next compound below.
stdin: Missing value: zone of inhibition at 100 µg/mL, Escherichia coli, entry O=[N+]([O-])c1ccc(NNC(=S)Nc2ccccc2)c([N+](=O)[O-])c1 . Fill in?
stdout: 14.1

----------
Record form. Attribute: zone of inhibition at 200 µg/mL. Fill in for each entry.
Tested on: Candida albicans
experimental_protocol: Antifungal activity against Candida albicans at 200 ug/ml after 48 to 72 hr by agar diffusion cup-plate method
Type: functional
conditions_used: read-out: DIZ
Numbers only, in mm.

smiles_notation: CC1=NN(c2ccc([N+](=O)[O-])cc2[N+](=O)[O-])C(=O)C1
test_system: Candida albicans
zone of inhibition at 200 µg/mL [mm]: 20.4
--
smiles_notation: O=C1CC(CCl)=NN1c1ccc([N+](=O)[O-])cc1[N+](=O)[O-]
test_system: Candida albicans
zone of inhibition at 200 µg/mL [mm]: 26.4
--
smiles_notation: O=C1CS/C(=N/c2ccccc2)N1Nc1ccc([N+](=O)[O-])cc1[N+](=O)[O-]
test_system: Candida albicans
zone of inhibition at 200 µg/mL [mm]: 24.2
--
smiles_notation: O=C1CC(=O)N(c2ccc([N+](=O)[O-])cc2[N+](=O)[O-])N1
test_system: Candida albicans
zone of inhibition at 200 µg/mL [mm]: 10.2
--
smiles_notation: Cc1cc(C)n(-c2ccc([N+](=O)[O-])cc2[N+](=O)[O-])n1
test_system: Candida albicans
zone of inhibition at 200 µg/mL [mm]: 24.5
--
smiles_notation: Clc1ccccc1C(c1ccccc1)(c1ccccc1)n1ccnc1
test_system: Candida albicans
zone of inhibition at 200 µg/mL [mm]: 28.4
--
smiles_notation: O=[N+]([O-])c1ccc(NNC(=S)Nc2ccccc2)c([N+](=O)[O-])c1
test_system: Candida albicans
zone of inhibition at 200 µg/mL [mm]: 18.4
--
smiles_notation: NC1=NN(c2ccc([N+](=O)[O-])cc2[N+](=O)[O-])C(=O)C1
test_system: Candida albicans
zone of inhibition at 200 µg/mL [mm]: 20.8

Please find the next compound below.
stdin: Missing value: zone of inhibition at 200 µg/mL, Candida albicans, entry CC(=O)N1C(=O)CC(=O)N1c1ccc([N+](=O)[O-])cc1[N+](=O)[O-] . Fill in?
stdout: 24.2
